Data credit: PubChem BioAssay AID602283

- assay notes: M3R calcium signalling without RGS4 expression – cell-based, HEK293 M3R, non-induced RGS4, Fluo-4 calcium, counter-screen for RGS4 activator project, primary screen (AID 602283);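 note: percent drop in integrated peak-minus-baseline over baseline Fluo4 ratio after carbachol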
- experimental setup: HEK293 M3R non-induced RGS4, Fluo4 calcium flux, at 10 µM, active compounds read high, after carbachol challenge at its EC90
The whole screen tested about 1,100 compounds, of which about 940 (85%) were called active. The set was probably picked from earlier hits. Not all results are given here.
measured quantity: inhibition

>>> df
                                   compound  measured_quantity    result_value
0        O=S(=O)(c1ccc(Br)cc1)n1ccc2ccccc21         inhibition  36.8% (active)
1   COc1cc(/C=C(\C#N)c2nc3ccccc3[nH]2)ccc1O         inhibition  61.3% (active)
2  Cc1nc(N2CCN(c3ccccn3)CC2)c2c(C)c(C(=O)Nc3ccc(F)cc3)sc2n1         inhibition  72.8% (active)
3  CCOC(=O)C1=C(NC(=S)NC(=O)c2ccccc2)c2ccccc2CC1(C)C         inhibition  61.3% (active)
4     CN1CCN(C(=O)N2c3ccccc3CCc3ccccc32)CC1         inhibition  57.3% (active)
5              CN(C)CCOc1ccc(Cl)cc1C(C)(C)C         inhibition  47.8% (active)

For every item below, please supply its inhibition.
1. CCCCCC(O)(CCN1CCCCC1)c1ccccc1 (stereo not drawn)
2. Oc1ccccc1N1CCN(c2ncnc3sc(-c4ccccc4)cc23)CC1
3. O=C(Cn1c(N2CCN(C/C=C/c3ccccc3)CC2)nc2ccccc21)c1ccccc1
4. Cc1cc2oc3ccc(NCCC4CCCN4C)cc3c(=O)c2cc1C (stereo not drawn)
5. COc1ccc(-c2cc(C(=O)N(C)Cc3ccccc3)c3ccccc3n2)cc1
6. Cc1ccnc(SCCn2c(N(C)Cc3ccccc3)nc3c2c(=O)n(C)c(=O)n3C)n1

1: 95.3% (active); 2: 26.3% (active); 3: 91.8% (active); 4: 87.8% (active); 5: 72.3% (active); 6: 28.3% (active)

For every item below, please supply its inhibition.
1. CC(C)C(c1nnnn1CCc1ccccc1)N1CCN(C(=O)c2ccco2)CC1 (stereo not drawn)
2. COc1cccc(CNC(=O)CCC2CCCN(Cc3ccc(OC(F)F)cc3)C2)c1 (stereo not drawn)
3. O=C(CN1CCCCCC1)Nc1ccc(S(=O)(=O)N2CCCCC2)cc1
4. C#CC(CCN1CCCCC1)(OC)c1ccccc1 (stereo not drawn)
5. COc1ccc(/C=C(\C#N)c2c[nH]c3ccccc23)cc1
6. COc1ccc(CN(C)C(=O)c2cc(-c3ccc(C)cc3C)nc3ccccc23)c(OC)c1OC
7. N=c1c2c3c(sc2nc2n1CCCCC2)CCCC3

25.8% (active)
83.8% (active)
83.8% (active)
63.8% (active)
70.8% (active)
51.3% (active)
55.8% (active)
